Overview of reported pIC50 across a group of molecules:
# TARGET_OR_SYSTEM: HIV-1 integrase (Human immunodeficiency virus type 1 group M subtype B)
# Construct: using the integrase coding domain from the HXB2 clone of HIV-1 DNA; made in house; host or cells: E. coli
# ASSAY_PROCEDURE: Integrase inhibition assay (cleavage and strand transfer of 32P-labelled HIV-1 U5/U3 oligonucleotide substrate)
# Assay type: biochemical
# APPLIED_CONDITIONS: Integrase Cleavage IC50, % cleavage of the substrate compared to control
pIC50: −log10 of the molar value.

# MOLECULE, VALUE_RELATION_SIGN, pIC50
rows = [
    ("CC(C)NC(=N)c1ccc2nc(C=Cc3nc4ccc(C(=N)NC(C)C)cc4[nH]3)[nH]c2c1 [Compound B]", "=", 4.21),
    ("N=C(N)c1ccc2nc(C=Cc3nc4ccc(C(=N)N)cc4[nH]3)[nH]c2c1 [Compound A]", "=", 4.96),
    ("N=C(N)c1ccc2[nH]c(Cc3nc4cc(C5=NCCN5)ccc4[nH]3)nc2c1 [E]", "<", 4.00),
]

All figures here come from patent US6815461B1.
